src = the RNAGym collection of RNA variant scans (doi:10.1073/pnas.2313332121)

B1: TPR t1 (parent)
chain: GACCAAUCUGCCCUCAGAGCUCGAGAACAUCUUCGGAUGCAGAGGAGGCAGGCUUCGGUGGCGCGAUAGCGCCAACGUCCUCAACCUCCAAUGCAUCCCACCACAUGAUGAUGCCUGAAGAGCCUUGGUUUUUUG

- Variants of: B1
- Assay Remarks: polymerase ribozyme fitness, log enrichment relative to wild type (log ratio); higher = more active; in vitro selection for triplet polymerase activity

{"Mutation Id": "C40U G44A A121U", "polymerase ribozyme fitness (log ratio)": 0.301}
{"Mutation Id": "U78C A95G", "polymerase ribozyme fitness (log ratio)": -1.08}
{"Mutation Id": "G69U C114A A121G U130G", "polymerase ribozyme fitness (log ratio)": 0.399}
{"Mutation Id": "G52C G57C C79G C86U C115U", "polymerase ribozyme fitness (log ratio)": -1.83}
{"Mutation Id": "C3A C72A G110U", "polymerase ribozyme fitness (log ratio)": -3.62}
{"Mutation Id": "A2G G63A C99U C101A A121G C124G", "polymerase ribozyme fitness (log ratio)": -4.81}
{"Mutation Id": "G69U C124A", "polymerase ribozyme fitness (log ratio)": 1.92}
{"Mutation Id": "C8U A95G C102U U106A", "polymerase ribozyme fitness (log ratio)": -3.3}
{"Mutation Id": "C8U C20U A37U A43U C72U A74U", "polymerase ribozyme fitness (log ratio)": -2.39}
{"Mutation Id": "A5U G36C", "polymerase ribozyme fitness (log ratio)": -1.42}
{"Mutation Id": "C82G G120A", "polymerase ribozyme fitness (log ratio)": -0.124}
{"Mutation Id": "C12U A27G G47A G51A G58A G61C A103G A121G", "polymerase ribozyme fitness (log ratio)": -7.4}
{"Mutation Id": "U33A U87A U133G", "polymerase ribozyme fitness (log ratio)": -4.32}
{"Mutation Id": "G63A G93A G120U", "polymerase ribozyme fitness (log ratio)": -1.07}
{"Mutation Id": "G23U C124A", "polymerase ribozyme fitness (log ratio)": -4.31}
{"Mutation Id": "C13A A29G C70U A95U C124A", "polymerase ribozyme fitness (log ratio)": -1.57}
{"Mutation Id": "G48A C79A U126C", "polymerase ribozyme fitness (log ratio)": -2.73}
{"Mutation Id": "C3A G60A U112C", "polymerase ribozyme fitness (log ratio)": 0.261}
{"Mutation Id": "C22U G45A A83C", "polymerase ribozyme fitness (log ratio)": -5.99}
{"Mutation Id": "C53U A90U", "polymerase ribozyme fitness (log ratio)": -0.929}
{"Mutation Id": "A5G U78A G120C", "polymerase ribozyme fitness (log ratio)": 0.799}
{"Mutation Id": "U21A G71A C88U G93A", "polymerase ribozyme fitness (log ratio)": -2.14}
{"Mutation Id": "U92G C104G", "polymerase ribozyme fitness (log ratio)": -7.29}
{"Mutation Id": "C8U U96C", "polymerase ribozyme fitness (log ratio)": 0.939}
{"Mutation Id": "G71A A105U", "polymerase ribozyme fitness (log ratio)": -3.04}
{"Mutation Id": "A103G C115U U129G U133A", "polymerase ribozyme fitness (log ratio)": -5.83}
{"Mutation Id": "G61A U78C C85U U96C C101U U109G", "polymerase ribozyme fitness (log ratio)": -5.66}
{"Mutation Id": "G61A C94U U112A", "polymerase ribozyme fitness (log ratio)": 1.31}
{"Mutation Id": "A6C C85U C101U G110U", "polymerase ribozyme fitness (log ratio)": -3.01}
{"Mutation Id": "U9A U33A G36U C89G C124A", "polymerase ribozyme fitness (log ratio)": -5.28}
{"Mutation Id": "C56U C115U", "polymerase ribozyme fitness (log ratio)": -0.661}
{"Mutation Id": "A26C A43G G69A U78G C82G C115A C123U U130G", "polymerase ribozyme fitness (log ratio)": -6.36}
{"Mutation Id": "C20U C64U C104A G107C G128A", "polymerase ribozyme fitness (log ratio)": -6.14}
{"Mutation Id": "U21C A90C", "polymerase ribozyme fitness (log ratio)": -1.17}
{"Mutation Id": "A24U G69U C88A C114A", "polymerase ribozyme fitness (log ratio)": -6.87}
{"Mutation Id": "U7G A18U", "polymerase ribozyme fitness (log ratio)": -0.713}
{"Mutation Id": "A37U G48A G61C U116A", "polymerase ribozyme fitness (log ratio)": -4.18}
{"Mutation Id": "C12U C72U U81G", "polymerase ribozyme fitness (log ratio)": -3.47}
{"Mutation Id": "G17A U78C", "polymerase ribozyme fitness (log ratio)": -3.04}
{"Mutation Id": "U30C C40U G120C", "polymerase ribozyme fitness (log ratio)": -2.45}
{"Mutation Id": "G42A C62G G69C C99A A111G C115U U129C", "polymerase ribozyme fitness (log ratio)": -6.83}
{"Mutation Id": "G47U A118G U130G", "polymerase ribozyme fitness (log ratio)": -3.01}
{"Mutation Id": "C12A G61U U78A U96A", "polymerase ribozyme fitness (log ratio)": -1.84}
